Data provenance is patent US20220204630A1.

- test.target: T1, TrKA receptor protein coated in ELISA (Examples 11 and 16) (human, UniProt P04629 33-423, limits assumed)
- T1 construct: also called Human-TrKA
- T1 sequence (P04629 33-423 limits assumed): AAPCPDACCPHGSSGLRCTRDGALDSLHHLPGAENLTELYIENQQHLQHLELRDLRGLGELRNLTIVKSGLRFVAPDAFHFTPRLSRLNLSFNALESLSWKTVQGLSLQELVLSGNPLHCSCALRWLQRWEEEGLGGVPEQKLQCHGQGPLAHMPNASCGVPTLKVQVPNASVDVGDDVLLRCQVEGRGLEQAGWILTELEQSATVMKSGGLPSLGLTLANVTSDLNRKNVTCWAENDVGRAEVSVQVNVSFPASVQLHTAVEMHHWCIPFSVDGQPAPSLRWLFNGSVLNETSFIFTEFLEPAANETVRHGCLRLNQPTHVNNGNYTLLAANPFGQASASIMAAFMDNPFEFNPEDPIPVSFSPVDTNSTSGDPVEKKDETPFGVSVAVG
- assay.explanation: competition ELISA: antibody titrated against biotinylated NGF binding to TrkA, OD450
IC50 overview
observation.type: IC50

INSERT INTO results (binder, observation_type, recorded_measurement) VALUES
  ('27H3 chimeric antibody (antibody, human IgG4 S228P, kappa, F234A L235A, V domains shown, expressed in CHO cells) VH: QVQLQQSGAELMKPGASVKISCKTTGYRFSSYWIEWVKQRPGHGLEWLGEILPGRGIINYNENFRGKATFTADTSSNTAYVQLSSLTSEDSAVYFCARTDPPYFGVWGAGTTVTVSS VL: QAVVTQESALTTSPGETVTLTCRSSTGAVTISNYANWVQEKPDHLFTGLIGGTNNRPPGVPARFSGSLIGDKAALTITGAQTEDEAIYFCVLWYSNHWVFGGGTKLTVLR', 'IC50', '0.11 µg/mL'),
  ('21E5 chimeric antibody (antibody, human IgG4 S228P, kappa, F234A L235A, V domains shown, expressed in CHO cells) VH: QVQLQQSGAELMKPGASMKISCKATGYTFSTYWIEWVKQRPGHGLEWIGENLPGRHITNYNEKFKGKATFTADTSSNTAYMQLSSLTSEDSAVYYCARGRGTYYFDYWGQGTPLTVSS VL: DIVMTQAAFSTPVTLGTSASISCRSSQSLLHSNGITYLYWYLQKPGQSPQLLIYQMSNLASGVPDRFSSSGSGTDFTLRISRVEAEDVGVYYCAQNLEFPFTFGSGTKLEIKR', 'IC50', '0.294 µg/mL'),
  ('23E12 chimeric antibody (antibody, human IgG4 S228P, kappa, F234A L235A, V domains shown, expressed in CHO cells) VH: QVQLQQSGAELVRPGTSVKISCKASGYAFTNYWLGWMKQRPGHGLEWIGDFYPRTGNTFYNENFKGKVTLTADKSSNTAYMQLSSLTSEDSAVYLCARAGTGFDYWGQGTTLTVSS VL: SIVMTQSPKSMSMSVGERVTLSCKASENVGGYVSWYQQKPDQSPKLLIYGASSRHTGVPDRFTGSGSETDFTLTISSVQAEDLAAYHCGQNYIYPFTFGGGTKLEIKR', 'IC50', '0.213 µg/mL');
